Test system: HOP-62
Test: NCI tumour cell line growth inhibition, 48 h
Active and inactive are the calls of the source. Rule as the data show it: active = GI50 up to about 1.1 µM and inactive = higher.
# maps each entry to its GI50

Entry COc1cc2c(cc1OC)C(=O)N(c1ccc(OCCN3CCCC3)cc1)C2 — recorded GI50 = > 100 µM (inactive)

GI50 recorded for this compound, Cc1[nH]c2ccccc2c1C1=CC(=O)N(c2ccccc2)C1=O , is 7.98 µM (inactive)

Recorded GI50 (compound COc1nc(NC2OC(COC(C)=O)C(OC(C)=O)C(OC(C)=O)C2OC(C)=O)c2c(OC(C)=O)c(C)c(=O)oc2n1 (stereo not given) ): > 100 µM (inactive)

Form field GI50, entry CCOC(=O)/C=C(/C(=O)OCC)n1ccc(=O)n(Cc2cn(CCCCOC(C)=O)nn2)c1=O : > 100 µM (inactive)

The reported measurements were obtained from ChEMBL document CHEMBL1201862.
